Reported Population Hoechst High Intensity Objects (%) values are given for each entry in this list.
# Test system: U2OS
# Protocol: Multiplex assay against U2OS
# Format: toxicity, cell-based
# Experimental Setup: human, 48 h, 1 µM, compound concentration 1 uM, number of replicates 2
Number in %, nothing else.

Worked cases, Population Hoechst High Intensity Objects (%) given:
[in] Give the measured Population Hoechst High Intensity Objects (%) of `Cn1cc(-c2ccc(-c3cncc(Cl)c3N3CCC4(CCNC4=O)CC3)cc2)cn1` .
[out] 0

[in] Give the measured Population Hoechst High Intensity Objects (%) of `Cc1cn(CCN2CCN(c3ccccc3-c3cc(C#N)cc(C(=O)NCCCN4CCCC4)c3)CC2)c2ccccc12` .
[out] 0

***
[in] Give the measured Population Hoechst High Intensity Objects (%) of `O=C1NC(=O)C(c2ccccc2[N+](=O)[O-])=C1Nc1ccc(O)c(Cl)c1` .
[out] 0

[in] Give the measured Population Hoechst High Intensity Objects (%) of `COc1ccccc1-c1cc(Nc2cccc(CS(N)(=O)=O)c2)ncn1` .
[out] 0
